- tgt: UniProtKB P34947
- Sequence (P34947 whole entry): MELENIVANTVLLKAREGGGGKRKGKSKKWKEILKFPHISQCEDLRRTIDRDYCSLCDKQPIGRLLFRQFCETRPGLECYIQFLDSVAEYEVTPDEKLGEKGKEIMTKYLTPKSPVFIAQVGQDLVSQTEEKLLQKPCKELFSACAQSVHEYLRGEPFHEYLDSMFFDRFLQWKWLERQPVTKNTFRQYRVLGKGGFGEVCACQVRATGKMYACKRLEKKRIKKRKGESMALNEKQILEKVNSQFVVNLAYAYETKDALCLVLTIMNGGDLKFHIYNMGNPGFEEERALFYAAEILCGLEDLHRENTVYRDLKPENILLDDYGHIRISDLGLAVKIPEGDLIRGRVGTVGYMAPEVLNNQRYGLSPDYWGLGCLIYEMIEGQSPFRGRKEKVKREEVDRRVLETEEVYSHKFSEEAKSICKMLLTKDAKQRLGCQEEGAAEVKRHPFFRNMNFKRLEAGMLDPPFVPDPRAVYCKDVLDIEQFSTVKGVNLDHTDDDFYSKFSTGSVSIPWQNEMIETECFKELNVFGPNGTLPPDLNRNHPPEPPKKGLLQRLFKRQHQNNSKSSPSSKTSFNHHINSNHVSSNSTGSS
measuredQuantity: IC50

{"compound": "COc1ccc([C@@H](C)NC(=O)/C=C/c2c[nH]c3ncc(-c4cccc([S+]([O-])C(F)(F)F)c4)cc23)cc1OC (stereo partly shown)", "result": "≤ 50 nM"}
{"compound": "COc1ccc([C@@H](C)NC(=O)/C(C#N)=C/c2c[nH]c3ncc(C(=O)N4CCOCC4)cc23)cc1OC", "result": "100 to 500 nM"}
{"compound": "O=C(/C=C/c1c[nH]c2nccc(Cl)c12)NCc1cccc(F)c1", "result": "1000 to 10000 nM"}
{"compound": "COc1ccc([C@@H](C)NC(=O)/C=C/c2c[nH]c3nccc(-c4cccc(CNC(C)=O)c4)c23)cc1OC", "result": "100 to 500 nM"}

Missing value: IC50, UniProtKB P34947, entry C[C@@H](NC(=O)/C(C#N)=C/c1c[nH]c2ncc(-c3ccc(N4CCN(C)CC4)cc3)cc12)c1ccc(F)cc1 . Fill in?
50 to 100 nM

Missing value: IC50, UniProtKB P34947, entry COc1ccc([C@@H](C)NC(=O)/C=C/c2c[nH]c3ncc(-c4ccccc4S(C)(=O)=O)cc23)cc1OC . Fill in?
1000 to 10000 nM

Missing value: IC50, UniProtKB P34947, entry COc1cc([C@@H](C)NC(=O)/C=C/c2c[nH]c3ncc(C)cc23)ccc1F . Fill in?
≤ 50 nM
